molecular target: UniProt:P49798; experiment: small molecules altering RGS4 interaction with Galphao – biochemical, multiplexed bead flow cytometry, SAR compounds, SAR follow-up (AID 2295)
Sequence (P49798 whole entry): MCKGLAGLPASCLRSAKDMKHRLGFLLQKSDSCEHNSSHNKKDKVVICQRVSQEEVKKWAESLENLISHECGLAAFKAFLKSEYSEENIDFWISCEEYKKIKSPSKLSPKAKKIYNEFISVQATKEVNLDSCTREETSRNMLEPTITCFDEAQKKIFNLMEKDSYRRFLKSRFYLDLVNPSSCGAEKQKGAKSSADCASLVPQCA
pKi: −log10 of the molar value.
measured_endpoint: pKi

> print(dat)
                               entry.smiles  measured.endpoint  quantitative.result
1  NS(=O)(=O)c1ccc(N=NCc2ccc(O)c(O)c2O)c([N+](=O)[O-])c1                pKi                 5.99
